- assayConditions: in methanol, 308.15 K
quantityMeasured: solubility (mole fraction)
I only need the number, thanks.

Per the record, CCCNS(=O)(=O)Nc1ncnc(OCCOc2ncc(Br)cn2)c1-c1ccc(Br)cc1 has solubility (mole fraction) of 0.000463

---

- assayConditions: in isopropanol, 283.15 K
quantityMeasured: solubility (mole fraction)
I only need the number, thanks.

Per the record, CCCNS(=O)(=O)Nc1ncnc(OCCOc2ncc(Br)cn2)c1-c1ccc(Br)cc1 has solubility (mole fraction) of 7.5e-05

---

- assayConditions: in ethanol, 283.15 K
quantityMeasured: solubility (mole fraction)
I only need the number, thanks.

Per the record, CCCNS(=O)(=O)Nc1ncnc(OCCOc2ncc(Br)cn2)c1-c1ccc(Br)cc1 has solubility (mole fraction) of 0.000117
